# Tested on: eight fungal species
# experiment_description: MIC/MFC summary across the eight fungal species of Table 1
# Type: cell-based
# study_conditions: across eight species; read-out: Geometric mean MFC
In this scheme, each record receives a class according to its MFC; the ranges are LOW (below 50 µg/mL), MEDIUM (50 µg/mL to below 100 µg/mL), HIGH (100 µg/mL or more)

molecule=CCCCCCCCCCCCN1CCC[C@H]1C(=O)N[C@@H](CC(=O)OC)C(=O)OC class=MEDIUM
molecule=CCCCCCCCCCCN1CCC[C@H]1C(=O)N[C@H](CC(=O)O)C(=O)O class=HIGH
molecule=CCCCCCCCCCCCN1CCC[C@H]1C(=O)N[C@H](CC(=O)O)C(=O)O class=HIGH
molecule=CCCCCCCCCN1CCC[C@H]1C(=O)N[C@H](CC(=O)OC)C(=O)OC class=HIGH
molecule=CCCCCCCCCCN1CCC[C@H]1C(=O)N[C@@H](CC(=O)OC)C(=O)OC class=MEDIUM
molecule=CCCCCCCCCCCN1CCC[C@H]1C(=O)N[C@@H](CC(=O)O)C(=O)O class=HIGH
molecule="CCCCCCCCCCn1cc[n+](CC(O)(P(=O)(O)O)P(=O)(O)O)c1 [10-ZOL, Decyl-zoledronate]" class=LOW
molecule=CCCCCCCCCCCN1CCC[C@H]1C(=O)N[C@@H](CC(=O)OC)C(=O)OC class=MEDIUM
molecule=CCCCCCCCCCCCN1CCC[C@H]1C(=O)N[C@H](CC(=O)OC)C(=O)OC class=HIGH
molecule="CCC(C)n1ncn(-c2ccc(N3CCN(c4ccc(OCC5COC(Cn6cncn6)(c6ccc(Cl)cc6Cl)O5)cc4)CC3)cc2)c1=O (centres unmarked)" class=LOW
molecule=CCCCCCCCCCCN1CCC[C@H]1C(=O)N[C@H](CC(=O)OC)C(=O)OC class=HIGH
molecule="O=P(O)(O)C(O)(Cn1ccnc1)P(=O)(O)O [ZOL, zoledronate]" class=HIGH
molecule="CC(=O)N1CCN(c2ccc(OCC3COC(Cn4ccnc4)(c4ccc(Cl)cc4Cl)O3)cc2)CC1 (centres unmarked)" class=LOW
molecule=CCCCCCCCCCN1CCC[C@H]1C(=O)N[C@H](CC(=O)OC)C(=O)OC class=LOW
molecule=CCCCCCCCCN1CCC[C@H]1C(=O)N[C@@H](CC(=O)OC)C(=O)OC class=HIGH
molecule=CCCCCCCCCN1CCC[C@H]1C(=O)N[C@@H](CC(=O)O)C(=O)O class=HIGH
molecule=CCCCCCCCCN1CCC[C@H]1C(=O)N[C@H](CC(=O)O)C(=O)O class=HIGH

###

# Test system: Trichophyton soudanense
# experiment_description: MIC broth microdilution (CLSI)
# study_conditions: Trichophyton soudanense R-167
endpoint_label: MIC / MEC (mg/L)

compound="CC[C@H](C)C[C@H](C)CCCCCCCCC(=O)N[C@H]1C[C@@H](O)[C@@H](NCCN)NC(=O)[C@@H]2[C@@H](O)CCN2C(=O)[C@H]([C@H](O)CCN)NC(=O)[C@H]([C@H](O)[C@@H](O)c2ccc(O)cc2)NC(=O)[C@@H]2C[C@@H](O)CN2C(=O)[C@H]([C@@H](C)O)NC1=O [CAS, caspofungin]" readout_units=mg/L value_measured=0.5
compound="O=P(O)(O)C(O)(Cn1ccnc1)P(=O)(O)O [ZOL, zoledronate]" readout_units=mg/L value_measured=64
compound="C[C@@H](c1ncncc1F)[C@](O)(Cn1cncn1)c1ccc(F)cc1F [VOR]" readout_units=mg/L value_measured=0.13
